Origin of measurements: paper PMC12677652

test: Brain and plasma concentrations after MCAO/reperfusion (BBB assessment); type: in vivo, mice; settings: C57BL/6, mouse, brain, ip; 0.5 h after administration, 48 mg kg^−1 i.p., after 1.5 h of MCAO followed by reperfusion; read-out: CBrain
measured parameter: concentration at 0.5 h (ng/g)
Return type: number; implicit unit ng/g.

What the record says about CC(C)c1c(O)cc(O)c2c1O[C@H](c1ccc(O)c(O)c1)[C@@H](O)[C@@H]2c1c(O)cc(O)c2c1O[C@H](c1ccc(O)c(O)c1)[C@@H](O)C2 : concentration at 0.5 h is 2810

What the record says about Oc1cc(O)c2c(c1)O[C@H](c1ccc(O)c(O)c1)[C@@H](O)[C@@H]2c1c(O)cc(O)c2c1O[C@H](c1ccc(O)c(O)c1)[C@@H](O)C2 : concentration at 0.5 h is 4790

----------
assay: Pharmacokinetic study in mice, i.p. injection; type: in vivo; conditions: C57BL/6, mouse, ip, 48 mg kg^−1 i.p., plasma, mean ± S.D., n = 3
Record form. Attribute: Cmax. Fill in for each entry.
Return type: number; implicit unit ng/mL.

What the record says about Oc1cc(O)c2c(c1)O[C@H](c1ccc(O)c(O)c1)[C@@H](O)[C@@H]2c1c(O)cc(O)c2c1O[C@H](c1ccc(O)c(O)c1)[C@@H](O)C2 [Compound 1, procyanidin B3] : Cmax is 30400

What the record says about CC(C)c1c(O)cc(O)c2c1O[C@H](c1ccc(O)c(O)c1)[C@@H](O)[C@@H]2c1c(O)cc(O)c2c1O[C@H](c1ccc(O)c(O)c1)[C@@H](O)C2 [Compound 6c] : Cmax is 25200

----------
assay: Brain and plasma concentrations after MCAO/reperfusion (BBB assessment); assay type: in vivo, mice; details: C57BL/6, mouse, brain / plasma, ip; 0.5 h after administration, 48 mg kg^−1 i.p., after 1.5 h of MCAO followed by reperfusion; read-out: CBrain/Cplasma
measured parameter: Kp at 0.5 h

What the record says about Oc1cc(O)c2c(c1)O[C@H](c1ccc(O)c(O)c1)[C@@H](O)[C@@H]2c1c(O)cc(O)c2c1O[C@H](c1ccc(O)c(O)c1)[C@@H](O)C2 : Kp at 0.5 h is 0.37

What the record says about CC(C)c1c(O)cc(O)c2c1O[C@H](c1ccc(O)c(O)c1)[C@@H](O)[C@@H]2c1c(O)cc(O)c2c1O[C@H](c1ccc(O)c(O)c1)[C@@H](O)C2 : Kp at 0.5 h is 0.57

----------
Record form. Attribute: AUC(0-t). Fill in for each entry.
assay: Pharmacokinetic study in mice, i.p. injection; assay type: in vivo; conditions: C57BL/6, mouse, ip, 48 mg kg^−1 i.p., plasma, mean ± S.D., n = 3
Return type: number; implicit unit ng·h/mL.

What the record says about Oc1cc(O)c2c(c1)O[C@H](c1ccc(O)c(O)c1)[C@@H](O)[C@@H]2c1c(O)cc(O)c2c1O[C@H](c1ccc(O)c(O)c1)[C@@H](O)C2 [Compound 1, procyanidin B3] : AUC(0-t) is 22200

What the record says about CC(C)c1c(O)cc(O)c2c1O[C@H](c1ccc(O)c(O)c1)[C@@H](O)[C@@H]2c1c(O)cc(O)c2c1O[C@H](c1ccc(O)c(O)c1)[C@@H](O)C2 [Compound 6c] : AUC(0-t) is 10200
